# Tested on: MCF7
# measurement description: Cytotoxicity against human MCF7 cells after 72 hrs by MTT assay
# Assay type: functional, cell-based
# run parameters: MCF7, 72 h
quantity: IC50

Example results:
{"columns": ["compound", "target or system", "IC50"],
 "data": [
  ["COc1cc([C@@H]2c3cc4c(cc3[C@@H](O[C@@H]3O[C@@H]5CO[C@@H](C)O[C@H]5[C@H](O)[C@H]3O)[C@H]3COC(=O)[C@H]23)OCO4)cc(OC)c1O [ETOPOSIDE]", "MCF7", "1200 nM"],
  ["Cc1ccc(-c2ccc([N+](=O)[O-])cc2)n1-c1ccc(-c2nc3ccccc3s2)cc1", "MCF7", "3110 nM"],
  ["COc1cc2nc(-c3ccc(-n4c(C)ccc4-c4ccc(C)cc4)cc3)sc2c(OC)c1OC", "MCF7", "3110 nM"],
  ["COc1ccc(-c2ccc(C)n2-c2ccc(-c3nc4ccc(OC)cc4s3)cc2)cc1", "MCF7", "4830 nM"],
  ["COc1ccc(-c2ccc(C)n2-c2ccc(-c3nc4cc(OC)c(OC)c(OC)c4s3)cc2)cc1", "MCF7", "2200 nM"],
  ["COc1cc(-c2ccc(C)n2-c2ccc(-c3nc4ccccc4s3)cc2)cc(OC)c1OC", "MCF7", "4370 nM"]
]}

The recorded IC50 for entry COc1cc(-c2ccc(C)n2-c2ccc(-c3nc4ccc(F)cc4s3)cc2)cc(OC)c1OC equals 2360 nM

// field: IC50; key: COc1ccc2nc(-c3ccc(-n4c(C)ccc4-c4ccc(F)cc4)cc3)sc2c1 ; value = 2800 nM

For Cc1ccc(-c2ccc(F)cc2)n1-c1ccc(-c2nc3ccccc3s2)cc1 the compound record lists IC50 as 3180 nM

Just so you know, measured IC50 for COc1ccc(-c2ccc(C)n2-c2ccc(-c3nc4ccccc4s3)cc2)cc1 came out at 3260 nM

Looking up Cc1ccc(-c2ccc(C)n2-c2ccc(-c3nc4ccc(F)cc4s3)cc2)cc1 , I see its IC50 listed as 2970 nM

Lookup result for Cc1ccc(-c2ccc([N+](=O)[O-])cc2)n1-c1ccc(-c2nc3ccc(F)cc3s2)cc1 ; measured IC50: 2370 nM

The compound listed as Cc1ccc(-c2ccc(C)n2-c2ccc(-c3nc4ccccc4s3)cc2)cc1 shows IC50 equal to 3100 nM

response.value for COc1ccc(-c2ccc(C)n2-c2ccc(-c3nc4ccc(F)cc4s3)cc2)cc1 (field: IC50) = 2540 nM

For Cc1ccc(-c2ccc(F)cc2)n1-c1ccc(-c2nc3ccc(F)cc3s2)cc1 the compound record lists IC50 as 2800 nM

The value of IC50 measured for the compound COc1cc2nc(-c3ccc(-n4c(C)ccc4-c4ccc(F)cc4)cc3)sc2c(OC)c1OC turned out to be 2910 nM

Data point: COc1ccc2nc(-c3ccc(-n4c(C)ccc4-c4cc(OC)c(OC)c(OC)c4)cc3)sc2c1 ; IC50 = 1520 nM

The compound COc1ccc2nc(-c3ccc(-n4c(C)ccc4-c4ccc(C)cc4)cc3)sc2c1 showed IC50 equal to 2850 nM

* * *

Quick reference: Ratio IC50 of the listed items.
# System: MCF7
# measurement description: Selectivity index, ratio of IC50 for human MCF10A cells to IC50 for human MCF7 cells
# Format: functional
Number only, no unit.

{"columns": ["molecule", "result number"],
 "data": [
  ["COc1cc(-c2ccc(C)n2-c2ccc(-c3nc4ccccc4s3)cc2)cc(OC)c1OC", 8.87],
  ["Cc1ccc(-c2ccc([N+](=O)[O-])cc2)n1-c1ccc(-c2nc3ccc(F)cc3s2)cc1", 16.4],
  ["COc1ccc2nc(-c3ccc(-n4c(C)ccc4-c4ccc(C)cc4)cc3)sc2c1", 11.92],
  ["Cc1ccc(-c2ccc(F)cc2)n1-c1ccc(-c2nc3ccc(F)cc3s2)cc1", 13.48],
  ["COc1cc2nc(-c3ccc(-n4c(C)ccc4-c4ccc(F)cc4)cc3)sc2c(OC)c1OC", 14.83]
]}

Reported Ratio IC50 for COc1ccc(-c2ccc(C)n2-c2ccc(-c3nc4cc(OC)c(OC)c(OC)c4s3)cc2)cc1 was 19.945

Entry COc1ccc(-c2ccc(C)n2-c2ccc(-c3nc4ccc(F)cc4s3)cc2)cc1 ; Ratio IC50 = 14.85

Per the record, COc1cc([C@@H]2c3cc4c(cc3[C@@H](O[C@@H]3O[C@@H]5CO[C@@H](C)O[C@H]5[C@H](O)[C@H]3O)[C@H]3COC(=O)[C@H]23)OCO4)cc(OC)c1O [ETOPOSIDE] has Ratio IC50 of 30.21

Consider COc1ccc(-c2ccc(C)n2-c2ccc(-c3nc4ccc(OC)cc4s3)cc2)cc1 . Its measured Ratio IC50 is 6.36

Reported Ratio IC50 of COc1cc(-c2ccc(C)n2-c2ccc(-c3nc4ccc(F)cc4s3)cc2)cc(OC)c1OC : 16.93

# Ratio IC50 of COc1ccc(-c2ccc(C)n2-c2ccc(-c3nc4ccccc4s3)cc2)cc1 = 11.13

COc1cc2nc(-c3ccc(-n4c(C)ccc4-c4ccc(C)cc4)cc3)sc2c(OC)c1OC has a reported Ratio IC50 of 13.66

Ratio IC50 recorded for this molecule, Cc1ccc(-c2ccc(C)n2-c2ccc(-c3nc4ccc(F)cc4s3)cc2)cc1 , is 11.3

Value of Ratio IC50 reported for the molecule Cc1ccc(-c2ccc(F)cc2)n1-c1ccc(-c2nc3ccccc3s2)cc1 is 12.57

For reference, reported Ratio IC50 for Cc1ccc(-c2ccc(C)n2-c2ccc(-c3nc4ccccc4s3)cc2)cc1 stands at 9.1

Looking up COc1ccc2nc(-c3ccc(-n4c(C)ccc4-c4ccc([N+](=O)[O-])cc4)cc3)sc2c1 , I see its Ratio IC50 listed as 25.3

COc1ccc2nc(-c3ccc(-n4c(C)ccc4-c4ccc(F)cc4)cc3)sc2c1 has a reported Ratio IC50 of 13.67

For this molecule ( COc1ccc2nc(-c3ccc(-n4c(C)ccc4-c4cc(OC)c(OC)c(OC)c4)cc3)sc2c1 ), measured Ratio IC50 is 24.84

Entry Cc1ccc(-c2ccc([N+](=O)[O-])cc2)n1-c1ccc(-c2nc3ccccc3s2)cc1 , Ratio IC50 reported as 12.47

* * *

# measurement description: Cytotoxicity against HEK cells at 0.25 to 64 ug after 72 hrs by MTT assay
# Type: cell-based
# run parameters: human, hek293, 72 h
quantity: Activity

The cases that follow already have their Activity on record.
{"columns": ["mol", "Activity"],
 "data": [
  ["COc1ccc(-c2ccc(C)n2-c2ccc(-c3nc4ccc(OC)cc4s3)cc2)cc1", "Non-toxic"],
  ["COc1ccc2nc(-c3ccc(-n4c(C)ccc4-c4ccc(C)cc4)cc3)sc2c1", "Non-toxic"],
  ["COc1ccc2nc(-c3ccc(-n4c(C)ccc4-c4ccc(F)cc4)cc3)sc2c1", "Non-toxic"],
  ["COc1cc2nc(-c3ccc(-n4c(C)ccc4-c4ccc(C)cc4)cc3)sc2c(OC)c1OC", "Non-toxic"]
]}

Please fill in: Activity reported for COc1ccc2nc(-c3ccc(-n4c(C)ccc4-c4cc(OC)c(OC)c(OC)c4)cc3)sc2c1 = Non-toxic

Measured Activity of Cc1ccc(-c2ccc(C)n2-c2ccc(-c3nc4ccccc4s3)cc2)cc1 : Non-toxic

Activity reported for this compound COc1cc(-c2ccc(C)n2-c2ccc(-c3nc4ccc(F)cc4s3)cc2)cc(OC)c1OC : Non-toxic
